assay: inhibitors of the yeast RAM network, pilot screen, dse1pr::URA3 reporter, 5-FOA selection (AID 869);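 further: 0% = DMSO wells with no growth and 100% = 10 µM 1-NA-PP1 with full growth; RAM network block rescues cells from 5-FOA so hits raise OD615 growth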; details: S. cerevisiae dse1pr::URA3 5-FOA growth, OD615, 2 d; at 10 µM; active compounds read high; strain carries analog-sensitive mutant Cbk1 kinase
Experimental Readout: inhibition (%)

INSERT INTO assay_data (compound, experimental_readout, unit_of_measurement, number) VALUES
  ('CC(C)c1ccc(-c2nc(N3CCCC3)nc3n[nH]c(N)c23)cc1', 'inhibition', '%', 3.83),
  ('Cc1ccc(C2CC(c3ccco3)n3nc(N)nc3N2)cc1 (stereo not given)', 'inhibition', '%', -1.15),
  ('Cc1cc(NC(=O)CSCc2nc(-c3cccc(Cl)c3)oc2C)no1', 'inhibition', '%', 1.98),
  ('CCOC(=O)C(C(=O)Nc1cccc(C)n1)C1CCCCC1 (stereo not given)', 'inhibition', '%', 3.22),
  ('CCn1nc(CC(=O)Nc2ccc(-n3cnnn3)c(C)c2)c2ccccc2c1=O', 'inhibition', '%', 0.6),
  ('CCOC(=O)N1CCN(C(=O)CN(c2cccc(C)c2)S(=O)(=O)c2ccccc2)CC1', 'inhibition', '%', -0.31),
  ('CCc1ccc(NC(=O)c2ccc3c(c2)C(=O)N(Cc2ccco2)C3=O)cc1', 'inhibition', '%', 0.185),
  ('CCc1ccc(NC(=O)CSc2nnc(Cc3cccn3C)n2-c2ccc(F)cc2)cc1', 'inhibition', '%', 0.05),
  ('CCOc1ccccc1CNC(=O)c1cc2occc2n1C', 'inhibition', '%', 1.74),
  ('CCCc1ccc(Oc2c(-c3ccc(O)c(C)c3O)n[nH]c2C)cc1', 'inhibition', '%', -2.1),
  ('O=C1C2=C(SCCS2)C(=O)N1CCCO', 'inhibition', '%', -0.095),
  ('CC(=O)c1ccc(OCC(O)CN2C(C)CCCC2C)cc1 (stereo not given)', 'inhibition', '%', 0.78),
  ('CCC(C)NC(=O)c1cn(C)c(=O)c2cc(OC)c(OC)cc12 (stereo not given)', 'inhibition', '%', 1.1),
  ('O=C(CN1CCOc2ccccc21)NC1CC1', 'inhibition', '%', 1.16),
  ('CC(=O)c1ccc(OCC(O)COc2ccc(C(C)=O)cc2)cc1', 'inhibition', '%', 1.22),
  ('CCOC(=O)c1ccc(NC(=O)C23CCC(C)(C(=O)O2)C3(C)C)cc1 (stereo not given)', 'inhibition', '%', -0.095),
  ('CCOC(=O)c1c(CN2CCCCC2)n(C)c2ccc(OC)c(S(=O)(=O)c3ccccc3)c12', 'inhibition', '%', 0.105),
  ('O=C(c1cnc2n(c1=O)CCS2)N1CCN(C(c2ccccc2)c2ccc(Cl)cc2)CC1 (stereo not given)', 'inhibition', '%', 1.31),
  ('O=C(Nc1cccnc1)c1cc(-c2ccc(Br)cc2)on1', 'inhibition', '%', 0.76),
  ('CCc1nnc(NC(=O)CSc2nnc(Cc3cccn3C)n2C)s1', 'inhibition', '%', 0.7),
  ('COc1ccc(NC(=O)C(c2ccc(OC)cc2)N(C)C(=O)c2cnccn2)cc1 (stereo not given)', 'inhibition', '%', 2.52),
  ('O=C(OCCN1C(=O)c2ccccc2C1=O)c1cc2ccccc2o1', 'inhibition', '%', 2.92),
  ('C=CCn1c(SCC(=C)C)nc2c1c(=O)[nH]c(=O)n2C', 'inhibition', '%', -0.415),
  ('O=C(NCc1ccc2c(c1)OCO2)C1CCC(CNc2c(N3CCCC3)c(=O)c2=O)CC1 (stereo not given)', 'inhibition', '%', 3.97),
  ('COc1cc(C2C(C(=O)c3ccco3)=C(O)C(=O)N2CCc2ccccc2)ccc1O (stereo not given)', 'inhibition', '%', 0.735),
  ('COC(=O)COC(=O)c1ccc(Oc2nc(OC)nc(N(C)C)n2)cc1', 'inhibition', '%', 1.35),
  ('O=C(NC1CCCCC1)N1CCC(n2c(=O)[nH]c3ccccc32)CC1', 'inhibition', '%', 2.25),
  ('CC(C)(C)NS(=O)(=O)c1ccc(OCC(=O)Nc2ccc3c(c2)OCCO3)cc1', 'inhibition', '%', 2.62),
  ('CCN(CC)S(=O)(=O)c1ccc2c3c(cccc13)C(=O)N2', 'inhibition', '%', 2.06),
  ('Cc1ccc(C)c(-n2c(Cc3cc(=O)[nH]c(=O)[nH]3)nnc2SC(C)C)c1', 'inhibition', '%', 1.74),
  ('COc1ccc(C2C(C(=O)c3ccco3)=C(O)C(=O)N2Cc2cccnc2)cc1OC (stereo not given)', 'inhibition', '%', 0.875),
  ('O=C(CCc1ccccc1)Nc1nnc(-c2ccc3c(c2)CCCC3)o1', 'inhibition', '%', 0.09),
  ('O=C1CC(c2ccco2)CC(O)=C1C=NCC1CCNCC1 (stereo not given)', 'inhibition', '%', 0.37),
  ('CC(C)=C1C2C=CC1C(C(=O)Nc1cc(C)ccc1C)C2C(=O)O (stereo not given)', 'inhibition', '%', 1.78),
  ('CC(C)N1C(=O)CCC1C(=O)NCCc1ccc(Cl)cc1 (stereo not given)', 'inhibition', '%', 0.29),
  ('Cc1ccc(C(=O)CC(C(=O)O)c2cn(CCC#N)c3ccccc23)cc1 (stereo not given)', 'inhibition', '%', 0.735),
  ('Cc1ccccc1-c1ccc(Nc2ccc(C(=O)N3CCOCC3)cc2)nn1', 'inhibition', '%', 1.39),
  ('N#CC1=C(SCC(=O)Nc2ccccc2)NC(=O)CC1c1ccc(O)cc1 (stereo not given)', 'inhibition', '%', 1.42),
  ('O=C1C2CCCN2C(c2ccc(Br)cc2)N1c1ccc(F)cc1 (stereo not given)', 'inhibition', '%', 2.89),
  ('C=CCn1c(SC(CCO)C(=O)NCc2ccco2)nc2sc3c(c2c1=O)CCC3 (stereo not given)', 'inhibition', '%', 1.2),
  ('O=C(NCc1ccccn1)c1ccc2ccccc2n1', 'inhibition', '%', 1.32),
  ('C=C1c2ccc(C)cc2NC(=O)N1c1ccccc1', 'inhibition', '%', 0.375),
  ('COc1ccc(OC)c(NC(=O)C2CCCN2C(=O)C2CCC(C)CC2)c1 (stereo not given)', 'inhibition', '%', 0.895),
  ('O=C(NCc1cccs1)c1cnc2sccn2c1=O', 'inhibition', '%', 1.6),
  ('Cc1ccc(N(CC(=O)NC2CCC(C)CC2)S(=O)(=O)c2cccnc2)cc1 (stereo not given)', 'inhibition', '%', 1.15);

* * *

viability increase values by entry
experiment: viability gain of MRP-1-high H69AR cells under doxorubicin, pilot screen, MRP-1 activator project, CellTiter-Glo, duplicate (AID 807); conditions: H69AR viability with doxorubicin, CellTiter-Glo luminescence; at 10 µM; active compounds read high;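 further: compound pretreatment 18-22 h then 72 h combined with doxorubicin; 0% = doxorubicin alone and 100% = vehicle without doxorubicin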
Experimental Readout: viability increase (%)

INSERT INTO assay_data (compound, experimental_readout, number) VALUES
  ('O=C(NCc1ccc2c(c1)OCO2)C1CCN(c2ccc(S(=O)(=O)N3CCCC3)cc2)CC1', 'viability increase', -6.29),
  ('O=C(Nc1ccc(S(=O)(=O)N2CCOCC2)cc1)C1COc2ccccc2O1 (stereo unspecified)', 'viability increase', -1.63),
  ('COc1ccc(OC)c(C2CC(=O)N3CN(c4cccc(Cl)c4C)CSC3=C2C#N)c1 (stereo unspecified)', 'viability increase', -5.48),
  ('N#Cc1nc(-c2ccccc2F)oc1NCCN1CCOCC1', 'viability increase', -1.89),
  ('CC1CC(C)CN(S(=O)(=O)c2cccc3cccnc23)C1 (stereo unspecified)', 'viability increase', -4.51),
  ('CCOC(=O)c1c(CC(C)C)csc1NC=O', 'viability increase', -1.84);

* * *

assay: 384-well plate pilot, post-Golgi transport modulator project, inhibition of yeast transport mutant growth (AID 636); details: absorbance 615 nm, about 18 h, active compounds read high
Experimental Readout: inhibition (%)

INSERT INTO assay_data (compound, unit_of_measurement, number) VALUES
  ('COc1ccc(NC(=O)CSc2nnc(-c3ccccc3C)n2C)cc1', '%', -4.55),
  ('Cc1cccc(-c2nc(CN3CCCC(C(=O)NC4CCCC4)C3)c(C)o2)c1 (stereo unspecified)', '%', 1.73),
  ('O=C(Nc1ccccc1C(=O)N1CCCCCC1)c1cccc(S(=O)(=O)N2CCOCC2)c1', '%', -1.84),
  ('COc1ccc2c(C(F)(F)F)cc(=O)oc2c1C', '%', -4.67),
  ('NC(=O)C(Cc1ccccc1)NS(=O)(=O)c1ccc(N2CCCC2=O)cc1 (stereo unspecified)', '%', -3.87),
  ('Cc1cccc(-n2c(Cc3cc(=O)[nH]c(=O)[nH]3)nnc2SCC(=O)NCc2ccco2)c1', '%', -7.07),
  ('O=C(CS(=O)(=O)Cc1ccccc1)N1CCc2ccccc2C1', '%', -5.6),
  ('CCCCOCCCNC(=O)c1cccs1', '%', -2.21),
  ('CC(C)CCNC(=O)CCNS(=O)(=O)c1ccc(Cl)cc1', '%', -1.71),
  ('O=C(CS(=O)(=O)c1cn(Cc2ccc(Cl)cc2)c2ccccc12)N1CCCC1', '%', -5.2),
  ('O=C1CC(c2ccc(F)c(Br)c2)C2=C(CCCC2=O)N1 (stereo unspecified)', '%', -3.95);
